This collection of values is drawn from patent US8673917B2.

# pIC50 values compiled below
- EXPERIMENTAL SYSTEM: SCD1 (Rattus norvegicus, UniProt P07308)
- Sequence (P07308 1-358): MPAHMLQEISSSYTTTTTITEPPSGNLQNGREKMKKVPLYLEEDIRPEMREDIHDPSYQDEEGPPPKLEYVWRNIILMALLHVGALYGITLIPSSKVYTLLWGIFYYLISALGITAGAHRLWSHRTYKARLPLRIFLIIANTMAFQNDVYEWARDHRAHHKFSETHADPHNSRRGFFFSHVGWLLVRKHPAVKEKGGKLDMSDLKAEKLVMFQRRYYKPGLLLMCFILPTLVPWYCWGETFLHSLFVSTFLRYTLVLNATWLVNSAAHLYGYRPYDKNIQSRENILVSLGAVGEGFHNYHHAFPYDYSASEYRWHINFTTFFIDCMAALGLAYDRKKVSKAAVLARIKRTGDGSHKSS
pIC50: −log10 of the molar value. Structures can show the parent of a compound that is named as a salt.

COMPOUND: O=C(c1ccccc1C(F)(F)F)N1CC2=C(C1)CN(c1ccc(OCCC3CC3)nn1)C2 [Example 5, trifluoroacetate]
pIC50: 6.67
//
COMPOUND: O=C(c1ccccc1C(F)(F)F)N1CC2=C(C1)CN(c1ccc(OCc3ccccc3)nn1)C2 [Example 8, hydrochloride]
pIC50: 8.07
//
COMPOUND: O=C(c1ccccc1C(F)(F)F)N1CC2=C(C1)CN(c1ccc(OCc3ccccn3)nn1)C2 [Example 9, hydrochloride]
pIC50: 5.87
//
COMPOUND: O=C(c1ccccc1C(F)(F)F)N1CC2=C(C1)CN(c1ccc(OCc3cscn3)nn1)C2 [Example 6, trifluoroacetate]
pIC50: 6.32
//
COMPOUND: O=C(c1ccccc1C(F)(F)F)N1CC2=C(C1)CN(c1ccc(OCc3ccccc3)nn1)C2 [Example 3]
pIC50: 8.14
//
COMPOUND: O=C(c1ccccc1C(F)(F)F)N1CC2=C(C1)CN(c1ccc(OCc3ccccc3)cn1)C2 [Example 1]
pIC50: 6.88
//
COMPOUND: O=C(c1ccccc1C(F)(F)F)N1CC2=C(C1)CN(c1ccc(OCC3CCOCC3)nn1)C2 [Example 7, trifluoroacetate]
pIC50: 5.15
//
COMPOUND: O=C(c1ccccc1C(F)(F)F)N1CC2=C(C1)CN(c1ccc(OCc3nccs3)nn1)C2 [Example 2]
pIC50: 6.10
//
COMPOUND: O=C(c1ccccc1C(F)(F)F)N1CC2=C(C1)CN(c1ccc(OCCc3ccccc3)nn1)C2 [Example 4, trifluoroacetate]
pIC50: 7.36
